PROTOCOL SUMMARY: Turbidity assay for solubility of the peptides
Format: physicochemical
CONDITION INFO: solubility of the antigenic peptides in water or Dimethyl Sulfoxide (DMSO)
Where no end group is shown, it is not given here.
QUANTITY NAME: Solubility

> print(dat)
                               residue.codes  obs.value
 1  VNSAETNTHGLAYDVPEGIRRHLRNPKIRRAFTEQ [UL13-2]      water
 2  ASSQSKPLATQPPVLALSNAPPRRVSPTRGRRRHT [UL01-3]      water
 3  VSPAHPQTPVGAGSRDLSLKGTPSDGMQPRGADTL [US11-1]      water
 4  TQDTACVHGELLARKRERFAAVINRFLDLHQILRG [UL33-2]      water
 5  AGLPSPVPYAPLGSPDPSSPRQRTYVLPRVGIHNA [US10-1]      water
 6  DRPSAYGTWVRVRVFRPPSLTIHPHAVLEGQPFKA [UL44-4]      water
 7  VAPACIIAAVLAYYVTWLARALLLYVNIKRDRLPL [UL20-2]       DMSO
 8  RAYLVNPFLFAAGFLEDLSHSVFPADTQETTTRRA [UL01-1]      water
 9  VTTAEFPRDPGQLLYIPKTYLLGRPRNASLPELPE [UL22-1]      water
10  ATYLLNYAGRIVSSVFLQYPYTKITRLLCELSVQR [UL53-1]       DMSO
11  LEVIFPTTDAKLNYLSRTQRLASLLTYAGPIKAPD [UL33-1]      water
12  IVGILGCAAVGAAPTGPASDTTNATARLPTHPPLI [US05-2]      water
13  PQPPLPQPPLPQPPLPQPPLPPVTRTLTPQSRDSV [UL36-3]      water
14  RTLAVRGDASLCQLLFGHPVDAVILRQATRRPRIT [UL16-2]      water
15  PATLIPRAAAKHLAALTRVQAERSSGYWWVNGDGI [UL45-1]      water
16  GPGASPRLYSVVGPLGRQRLIIEELTLETQGMYYW [UL44-1]      water
17  SRLPPHTQPVFSKRVVMFAWSFLVLKPLELVAAGM [UL20-1]      water
18  SSDVPSVALLLFPNGTVIHLLAFDTLPIATIAPGF [UL22-3]       DMSO
19  DEAFPIEYVLRLMNDWADVPCNPYLRVQNTGVSVL [UL34-1]       DMSO
20  ILSPGALAAIENYVRFSADRLLGLIHMQPLYSAPA [UL40-2]      water
21  LSGIAVRLCYIAVVAGVVLVALRYEQEIQRRLFDL [UL53-2]       DMSO
22  VSIIALTELYFILRRGSAPKNAEPAAPRGRSKGWS [UL53-3]      water
